Just for reference, paper PMC5700166 is where these values come from.

Target: GST-Dm-Relish (Drosophila melanogaster, UniProt Q94527 99-473)
Sequence: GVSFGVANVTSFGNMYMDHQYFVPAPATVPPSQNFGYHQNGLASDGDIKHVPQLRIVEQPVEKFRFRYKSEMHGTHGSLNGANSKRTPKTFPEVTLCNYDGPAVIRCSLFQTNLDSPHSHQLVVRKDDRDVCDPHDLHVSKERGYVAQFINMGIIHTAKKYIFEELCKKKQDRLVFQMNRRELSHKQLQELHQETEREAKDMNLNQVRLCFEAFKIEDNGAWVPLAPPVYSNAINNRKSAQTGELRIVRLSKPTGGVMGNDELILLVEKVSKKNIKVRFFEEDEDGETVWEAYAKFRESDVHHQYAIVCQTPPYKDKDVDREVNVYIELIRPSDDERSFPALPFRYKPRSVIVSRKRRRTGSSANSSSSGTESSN
Experiment: protein-binding microarray (PBM); PBM: ~300 nM protein, 6 mM HEPES pH 7.8, 80 mM KCl, 0.5 mM EDTA, 0.5 mM EGTA, 6% glycerol, 35 ng/ul poly-dIdC, 1% milk, 1 h, room temperature; high values mean tight binding
Conditions: dsDNA, one strand shown
Exam item: assign Met to entries whose binding signal is below 2 z-score and Not met to entries at or above 2 z-score. Note that a value of exactly 2 z-score receives Not met.

INSERT INTO results (sequence_entry, label_value) VALUES
  ('CCGATTAACATCAGGTAAGTCCATGATGTTAATCGGGTCTTGATTCGCTTGACGCTGCTG', 'Met'),
  ('CCGATTAACATCAAAATAATCCCTGATGTTAATCGGGTCTTGATTCGCTTGACGCTGCTG', 'Not met'),
  ('CCGATTAACATCAGGTAATTTTATGATGTTAATCGGGTCTTGATTCGCTTGACGCTGCTG', 'Not met'),
  ('CCGATTAACATCAAATTCCCACTTGATGTTAATCGGGTCTTGATTCGCTTGACGCTGCTG', 'Not met');

###

Molecular target: GST-Nv-NF-kB (Ser allele) (Nematostella vectensis, UniProt A7UNT2 2-411)
Sequence: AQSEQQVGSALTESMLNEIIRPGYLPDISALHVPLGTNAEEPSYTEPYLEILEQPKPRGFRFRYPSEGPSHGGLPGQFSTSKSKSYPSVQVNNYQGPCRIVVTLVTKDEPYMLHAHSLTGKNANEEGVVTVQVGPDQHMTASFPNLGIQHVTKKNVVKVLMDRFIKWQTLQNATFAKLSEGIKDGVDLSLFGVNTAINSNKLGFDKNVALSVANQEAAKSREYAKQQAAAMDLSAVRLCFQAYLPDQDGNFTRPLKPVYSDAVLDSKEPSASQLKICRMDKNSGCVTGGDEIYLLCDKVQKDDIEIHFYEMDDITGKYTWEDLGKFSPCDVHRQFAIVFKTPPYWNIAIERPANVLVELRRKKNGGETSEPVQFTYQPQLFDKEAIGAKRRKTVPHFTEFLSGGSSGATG
Assay: protein-binding microarray (PBM); PBM: ~300 nM protein, 6 mM HEPES pH 7.8, 80 mM KCl, 0.5 mM EDTA, 0.5 mM EGTA, 6% glycerol, 35 ng/ul poly-dIdC, 1% milk, 1 h, room temperature; Ap Aiptasia and Nv Nematostella (sea anemones) / Co Capsaspora / Aq Amphimedon (sponge) / Dm Drosophila / Hu human; RHD is the Rel homology domain; high values mean tight binding
Details: dsDNA, one strand shown
Exam item: assign Y to entries whose binding signal is below 6 z-score and N to entries at or above 6 z-score. Note that a value of exactly 6 z-score receives N.

INSERT INTO measurements (sequence_entry, label_value) VALUES
  ('CCGATTAACATCAGGGGAAGCTATGATGTTAATCGGGTCTTGATTCGCTTGACGCTGCTG', 'N'),
  ('CCGATTAACATCAGGGGACTTTATGATGTTAATCGGGTCTTGATTCGCTTGACGCTGCTG', 'N'),
  ('CCGATTAACATCACATTTTTCCCTGATGTTAATCGGGTCTTGATTCGCTTGACGCTGCTG', 'N'),
  ('CCGATTAACATCATGAATTCCCATGATGTTAATCGGGTCTTGATTCGCTTGACGCTGCTG', 'Y'),
  ('CCGATTAACATCAAGGGGGATATTGATGTTAATCGGGTCTTGATTCGCTTGACGCTGCTG', 'N'),
  ('CCGATTAACATCACTTTCCCCCCTGATGTTAATCGGGTCTTGATTCGCTTGACGCTGCTG', 'N'),
  ('CCGATTAACATCAGGGGGAAAAATGATGTTAATCGGGTCTTGATTCGCTTGACGCTGCTG', 'N'),
  ('CCGATTAACATCAAAAGTCCCCATGATGTTAATCGGGTCTTGATTCGCTTGACGCTGCTG', 'N'),
  ('CCGATTAACATCAGAAAAGTCCCTGATGTTAATCGGGTCTTGATTCGCTTGACGCTGCTG', 'N'),
  ('CCGATTAACATCAAGGTATTCCCTGATGTTAATCGGGTCTTGATTCGCTTGACGCTGCTG', 'Y'),
  ('CCGATTAACATCAAGGGGGTACTTGATGTTAATCGGGTCTTGATTCGCTTGACGCTGCTG', 'Y'),
  ('CCGATTAACATCAAAAATTCCCTTGATGTTAATCGGGTCTTGATTCGCTTGACGCTGCTG', 'N'),
  ('CCGATTAACATCAATCACCCCCCTGATGTTAATCGGGTCTTGATTCGCTTGACGCTGCTG', 'Y'),
  ('CCGATTAACATCATCAGTTTCCCTGATGTTAATCGGGTCTTGATTCGCTTGACGCTGCTG', 'Y'),
  ('CCGATTAACATCAGGGGGATTTATGATGTTAATCGGGTCTTGATTCGCTTGACGCTGCTG', 'N'),
  ('CCGATTAACATCAAACAATCCCCTGATGTTAATCGGGTCTTGATTCGCTTGACGCTGCTG', 'N'),
  ('CCGATTAACATCAAATAATACCCTGATGTTAATCGGGTCTTGATTCGCTTGACGCTGCTG', 'Y'),
  ('CCGATTAACATCACAAATTCCCCTGATGTTAATCGGGTCTTGATTCGCTTGACGCTGCTG', 'N');
